test: Stability tests of imipenem with increasing concentrations of tested molecules; details: C 100 μM of tested molecule
endpoint.label: Slope (stability test of imipenem)

// known answers, use as guide
{"compound": "COc1ccc(C2C/C(=N\\c3ccccc3)N2c2ccccc2)cc1 (stereo not shown) [T4#2]", "readout.value": 321}
{"compound": "COc1ccc(N2/C(=N/c3ccccc3)CC2c2ccc(Cl)cc2)cc1 (stereo not shown) [T4#9]", "readout.value": 390}

[1] COc1ccc(N2/C(=N/c3ccccc3)CC2c2ccccc2)cc1 (stereo not shown) [T4#1]
[2] COc1cc(N2/C(=N/c3ccccc3)CC2c2ccccc2)cc(OC)c1OC (stereo not shown) [T4#7]
# min-compare on Slope (stability test of imipenem) between 1 and 2 Choose, then provide that item's label. 2
(2: 174, 1: 506)

====

The following compounds have recorded pIC50 on KPC Enzyme (Klebsiella pneumoniae).
pIC50: −log10 of the molar value.

{"compound": "CSc1ccc(N2/C(=N/c3ccccc3)CC2c2ccccc2)cc1 (stereo not shown)", "readout.value": "> 5.00"}

Report pIC50 on KPC Enzyme (Klebsiella pneumoniae) for this entry: O=C(O)c1ccc(C2C/C(=N\c3ccccc3)N2c2ccccc2)cc1 (stereo not shown) < 4.30

Report pIC50 on KPC Enzyme (Klebsiella pneumoniae) for this entry: COc1cccc(N2/C(=N/c3ccccc3)CC2c2ccc(Cl)cc2)c1 (stereo not shown) 5.30 to 5.60

Report pIC50 on KPC Enzyme (Klebsiella pneumoniae) for this entry: COc1ccc(N2/C(=N/c3ccccc3)CC2c2ccccc2)cc1 (single isomer, unassigned) [Enantiomer 1] > 5.00

Report pIC50 on KPC Enzyme (Klebsiella pneumoniae) for this entry: Oc1ccc(N2/C(=N/c3ccccc3)CC2c2ccccc2)cc1 (stereo not shown) < 4.30

Report pIC50 on KPC Enzyme (Klebsiella pneumoniae) for this entry: CCOc1ccc(N2/C(=N/c3ccc(I)cc3)CC2c2ccc3ccccc3c2)cc1 (stereo not shown) 5.60

Report pIC50 on KPC Enzyme (Klebsiella pneumoniae) for this entry: COc1ccccc1N1/C(=N/c2ccccc2)CC1c1ccc(Cl)cc1 (stereo not shown) 5.00 to 5.30

Report pIC50 on KPC Enzyme (Klebsiella pneumoniae) for this entry: CC(C)(C)OC(=O)COc1ccc(N2/C(=N/c3ccccc3)CC2c2ccc(Cl)cc2)cc1 (stereo not shown) 5.89

Report pIC50 on KPC Enzyme (Klebsiella pneumoniae) for this entry: CCOc1ccc(N2/C(=N/c3ccccc3)CC2c2ccccc2)cc1 (stereo not shown) > 5.30

====

molecular target: KPC Enzyme (Klebsiella pneumoniae, UniProt Q9F663); assay: Imipenem hydrolysis followed by UV absorbance slope, KPC enzyme; assay type: biochemical; conditions: C 10 μM
Sequence (Q9F663 25-293, looked up): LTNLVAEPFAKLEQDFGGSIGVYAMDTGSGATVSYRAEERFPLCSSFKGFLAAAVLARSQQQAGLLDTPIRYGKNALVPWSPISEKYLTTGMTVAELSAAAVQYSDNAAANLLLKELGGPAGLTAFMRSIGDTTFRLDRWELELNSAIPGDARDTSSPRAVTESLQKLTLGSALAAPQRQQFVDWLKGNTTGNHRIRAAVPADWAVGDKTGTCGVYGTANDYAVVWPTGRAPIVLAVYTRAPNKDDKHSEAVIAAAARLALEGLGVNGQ
endpoint.label: inhibition at 10 µM (%)

{"compound": "[N-]=[N+]=NCc1ccc(C2C/C(=N\\c3ccccc3)N2c2ccccc2)cc1 (stereo not drawn)", "inhibition at 10 µM (%)": 89}

[A] CC(C)(C)OC(=O)c1ccc(C2C/C(=N\c3ccccc3)N2c2ccccc2)cc1 (stereo not drawn)
[B] c1ccc(COc2ccc(N3/C(=N/c4ccccc4)CC3c3ccccc3)cc2)cc1 (stereo not drawn)
So which one has the bigger inhibition at 10 µM here, A or B ? Choose, then provide that item's label. B
(B: 86%, A: 45%)

====

The following compounds have recorded IC50 on KPC Enzyme (Klebsiella pneumoniae).

// known answers, use as guide
{"compound": "O=C(O)COc1ccc(N2/C(=N/c3ccccc3)CC2c2ccc(Cl)cc2)cc1 (stereo not drawn)", "IC50": "> 50 µM"}
{"compound": "COc1ccc(N2/C(=N/c3ccccc3)CC2c2cccnc2)cc1 (stereo not drawn)", "IC50": "> 100 µM"}
{"compound": "COc1ccc(N2/C(=N/c3ccc(Cl)cc3)CC2c2ccccc2)cc1 (stereo not drawn)", "IC50": "2 µM"}
{"compound": "c1ccc(/N=C2\\CC(c3ccccc3)N2c2ccc3c(c2)OCCO3)cc1 (stereo not drawn)", "IC50": "5 to 10 µM"}
{"compound": "COc1cccc(N2/C(=N/c3ccccc3)CC2c2ccccc2)c1 (stereo not drawn)", "IC50": "5 to 10 µM"}

Answer with reported IC50 of COc1ccc(N2/C(=N/c3ccccc3)CC2c2cc(Cl)cc(Cl)c2)cc1 (stereo not drawn) 2.5 to 5 µM

====

target: KPC Enzyme (Klebsiella pneumoniae, UniProt Q9F663)
pIC50: −log10 of the molar value.
endpoint.label: pIC50

{"compound": "COc1ccc(N2/C(=N/c3ccc(Cl)cc3)CC2c2ccc(Cl)cc2)cc1 (stereo not shown)", "system.name": "KPC Enzyme (Klebsiella pneumoniae, UniProt Q9F663)", "readout.value": 5.54}
{"compound": "COc1ccc(N2/C(=N/c3ccc(I)cc3)CC2c2cc(Cl)cc(Cl)c2)cc1 (stereo not shown)", "system.name": "KPC Enzyme (Klebsiella pneumoniae, UniProt Q9F663)", "readout.value": 5.54}
{"compound": "COc1ccc(N2/C(=N/c3ccc(I)cc3)CC2c2ccccc2)cc1 (stereo not shown)", "system.name": "KPC Enzyme (Klebsiella pneumoniae, UniProt Q9F663)", "readout.value": 5.48}
